Provide the reported growth of each item.
system: Klebsiella aerogenes DSM 30053; assay: growth (OD595) fold change vs plate DMSO controls (fold change (ratio)); higher = more growth; settings: incubation time: 27 h, anaerobic, 37 °C
Counter-ions that a name gives are not always drawn.
Answers are plain numbers.

Recorded growth, per entry:
- Cc1ccc(Cl)c(Nc2ccccc2C(=O)O)c1Cl [Meclofenamic acid sodium salt monohydrate] (20 µM): 1.16
- CO[C@@]12[C@H](COC(N)=O)C3=C(C(=O)C(C)=C(N)C3=O)N1C[C@@H]1N[C@@H]12 [Mitomycin C] (20 µM): 0.824
- CCN1CCC[C@H]1CNC(=O)c1c(O)c(Cl)cc(Cl)c1OC [Raclopride] (20 µM): 0.996
- COCCCOc1cc(C[C@@H](C[C@H](N)[C@@H](O)C[C@H](C(=O)NCC(C)(C)C(N)=O)C(C)C)C(C)C)ccc1OC [Aliskiren hemifumarate] (20 µM): 1
- CC(C)CN(C[C@@H](O)[C@H](Cc1ccccc1)NC(=O)O[C@H]1CO[C@H]2OCC[C@H]21)S(=O)(=O)c1ccc(N)cc1 [Darunavir] (20 µM): 1

Ask | Item under review: CCC(=O)OCC(=O)[C@@]1(OC(=O)CC)[C@@H](C)C[C@H]2[C@@H]3CCC4=CC(=O)C=C[C@]4(C)[C@@]3(Cl)[C@@H](O)C[C@@]21C [Beclomethasone dipropionate] (20 µM) . Reported growth?
Reply | 1.04

// data source = the supplement of paper PMC12494721
